ASSAY_TARGET: T1, NNDP52 (N-terminal truncated region of NDP52, amino acid residues 1-190) (UniProt Q13137 1-190)
T1 chain: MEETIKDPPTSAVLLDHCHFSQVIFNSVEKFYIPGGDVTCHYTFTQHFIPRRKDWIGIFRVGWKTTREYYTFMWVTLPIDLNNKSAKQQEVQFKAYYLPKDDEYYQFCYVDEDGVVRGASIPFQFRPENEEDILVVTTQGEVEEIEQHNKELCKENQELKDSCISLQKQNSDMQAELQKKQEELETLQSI
EXPERIMENT_DESCRIPTION: MST
pKd: −log10 of the molar value.

[
  {
    "BINDER": "CNDP52 (C-terminal region of NDP52, amino acid residues 365-446) (domain or fragment, UniProt Q13137 365-446, looked up, NDP52/CALCOCO2, a section of the coiled-coil and both zinc finger domains, amino acid residues 365-446; source: E. coli BL21 DE3, purified (HisTrap FF, Superdex 200 SEC)) EGGARQNPGLAYGNPYSGIQESSSPSPLSIKKCPICKADDICDHTLEQQQMQPLCFNCPICDKIFPATEKQIFEDHVFCHSL",
    "pKd": 6.96
  }
]
